Data origin: ChEMBL document CHEMBL1201862

Biological target: High affinity choline transporter 1 (Homo sapiens)
Sequence (Q9GZV3 whole entry): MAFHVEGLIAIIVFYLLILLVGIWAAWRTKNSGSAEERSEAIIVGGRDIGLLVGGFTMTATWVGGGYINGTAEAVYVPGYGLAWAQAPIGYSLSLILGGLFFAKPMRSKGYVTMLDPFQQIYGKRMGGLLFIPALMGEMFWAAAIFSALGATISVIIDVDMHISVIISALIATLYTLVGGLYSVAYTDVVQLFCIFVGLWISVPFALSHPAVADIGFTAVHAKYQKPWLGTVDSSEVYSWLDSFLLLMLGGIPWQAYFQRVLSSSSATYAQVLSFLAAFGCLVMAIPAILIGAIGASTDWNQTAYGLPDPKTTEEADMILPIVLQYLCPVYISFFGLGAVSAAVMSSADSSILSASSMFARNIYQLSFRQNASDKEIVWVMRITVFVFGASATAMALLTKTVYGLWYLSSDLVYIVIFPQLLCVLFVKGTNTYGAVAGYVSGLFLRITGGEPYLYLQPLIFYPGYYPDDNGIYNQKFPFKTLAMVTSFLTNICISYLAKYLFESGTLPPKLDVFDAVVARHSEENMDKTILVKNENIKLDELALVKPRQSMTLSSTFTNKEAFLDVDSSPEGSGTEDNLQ
Assay: human choline transporter blockers, potency – cell-based, 10-point CRC, membrane potential dye, dose response (AID 588401);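 further: membrane potential dye fluorescence of choline-evoked depolarization via CHT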
Type: functional
Active and inactive are the calls of the source. How the calls were made is not given here.
Attribute Measured: IC50

[
  {
    "Chemical Structure": "Cc1ccc(CS(=O)(=O)c2ncc(Cl)c(C(=O)Nc3nnc(C)s3)n2)cc1",
    "System Tested": "High affinity choline transporter 1 (Homo sapiens)",
    "Reported Measurement": "3980 nM (active)"
  },
  {
    "Chemical Structure": "C=CC(=O)/N=c1\\sc2ccccc2n1-c1ccccc1",
    "System Tested": "High affinity choline transporter 1 (Homo sapiens)",
    "Reported Measurement": "1780 nM (active)"
  },
  {
    "Chemical Structure": "O=C(N/N=C1/CCC/C1=C(/O)C(F)(F)F)c1ccccc1O",
    "System Tested": "High affinity choline transporter 1 (Homo sapiens)",
    "Reported Measurement": "3570 nM (active)"
  }
]

// next item, IC50 requested
Problem: Please give the documented IC50 of Cc1ccc(-c2csc(NC(=O)c3ccccc3Cl)c2C(=O)O)cc1
Solution: 1580 nM (active)

---

Biological target: Cytochrome P450 1A2 (Homo sapiens, UniProt P05177);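 further: PubChem cytochrome P450 panel assay, CYP1A2 panel member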
Sequence (P05177 whole entry): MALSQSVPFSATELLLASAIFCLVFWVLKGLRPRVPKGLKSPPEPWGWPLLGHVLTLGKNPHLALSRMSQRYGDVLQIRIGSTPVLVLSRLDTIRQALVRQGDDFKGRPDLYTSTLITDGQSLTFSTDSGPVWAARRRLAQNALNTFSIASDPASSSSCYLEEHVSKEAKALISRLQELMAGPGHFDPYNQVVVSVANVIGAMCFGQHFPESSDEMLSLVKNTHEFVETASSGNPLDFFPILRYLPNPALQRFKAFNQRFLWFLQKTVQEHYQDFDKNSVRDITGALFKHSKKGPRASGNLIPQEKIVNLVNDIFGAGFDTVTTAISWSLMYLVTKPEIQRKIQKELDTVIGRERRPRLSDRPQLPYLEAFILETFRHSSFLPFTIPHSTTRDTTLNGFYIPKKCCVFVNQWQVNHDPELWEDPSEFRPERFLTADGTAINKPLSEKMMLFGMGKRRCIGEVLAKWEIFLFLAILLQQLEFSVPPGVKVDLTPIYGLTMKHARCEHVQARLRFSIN
Parameter AC50: see the listing below.

[
  {
    "Compound": "O=C(c1cnccn1)N1CCC[C@@]2(CCN(C(c3ccccc3)c3ccccc3)C2)C1",
    "Reported Measurement": "15.8 µM (inconclusive)"
  },
  {
    "Compound": "Cc1noc(C)c1-c1cncnc1NCCN1CCOCC1",
    "Reported Measurement": "31.6 µM (inconclusive)"
  },
  {
    "Compound": "Cc1cc([C@](C)(N)C(=O)O)ccc1P(=O)(O)O",
    "Reported Measurement": "31.6 µM (inconclusive)"
  },
  {
    "Compound": "Cc1ccc(C(=O)NC2CCCCC2)cc1",
    "Reported Measurement": "22.4 µM (inconclusive)"
  },
  {
    "Compound": "Cn1c(C(N)=O)cnc1Sc1ncc(C(F)(F)F)cc1Cl",
    "Reported Measurement": "28.2 µM (inconclusive)"
  }
]

Problem: Please give the documented AC50 of Cc1nn(C(C)(C)C)c(OC(=O)c2ccco2)c1Sc1ccccc1
Solution: 14.1 µM (inconclusive)

Problem: Please give the documented AC50 of O=C1c2c(O)cc(O)cc2O[C@@H](c2ccc(O)c(O)c2)[C@H]1O [(+)-EPITAXIFOLIN]
Solution: 15.8 µM (inconclusive)

Problem: Please give the documented AC50 of COc1ccccc1/C=N/N=C(/Nc1ccc(C)cc1)c1nc2ccccc2s1
Solution: 14.1 µM (inconclusive)

Problem: Please give the documented AC50 of O=c1c(-c2ccccc2)nc2cnc(N3CCOCC3)nc2n1CCc1ccccc1
Solution: 12.6 µM (inconclusive)

Problem: Please give the documented AC50 of O=C(O)CNC(=O)c1ccccc1O [SALICYLURIC ACID]
Solution: 5.01 µM (inconclusive)

---

System: HEK293
Experiment: NOD2 signaling inhibitors in MDP-stimulated cells, cell-based, uHTS, luminescence (AID 2001)
Format: functional
Conditions: Homo sapiens
Active and inactive are the calls of the source. The rule behind the calls is not given here.
Parameter IC50: see the listing below.

See these solved cases before continuing.
[
  {
    "Chemical Structure": "O=C(Nc1sc2c(c1C(=O)O)CCCC2)c1ccc(Cl)cc1",
    "System Tested": "HEK293",
    "IC50": "16 µM (inactive)"
  },
  {
    "Chemical Structure": "CC(/C=C/c1ccccc1)=N/NC(=O)c1cccc(Br)c1",
    "System Tested": "HEK293",
    "IC50": "2.7 µM (active)"
  },
  {
    "Chemical Structure": "CCN(CC)c1ccc(/C=C/c2ccc3ccc(OC)cc3[n+]2CC)cc1",
    "System Tested": "HEK293",
    "IC50": "2.2 µM (active)"
  }
]

Problem: Param request: IC50 | system HEK293 | item O=S(=O)(Nc1cccc(-c2cn3cccnc3n2)c1)c1ccc(-c2ccccc2)cc1
Solution: 6.98 µM (active)
